Test: Lipophilicity, log D of the compound at pH 7.4 by RP-HPLC analysis
Format: physicochemical
Settings: buffer
result type: logD

Before answering, review these 5 worked examples.
>>> number("Cc1ccnc([C@@H](C)Oc2cc3oc(=O)n(CCC(=O)O)c3cc2Cl)c1.NC(CO)(CO)CO")
2.15
>>> number("Cc1ccc([C@@H](C)Oc2cc3oc(=O)n(CCC(=O)O)c3cc2Cl)nc1.NC(CO)(CO)CO")
2.02
>>> number("C[C@@H](Oc1cc2onc(CCC(=O)O)c2cc1Cl)c1ccc(Cl)cn1.NC(CO)(CO)CO")
2.91
>>> number("C[C@@H](Oc1cc2oc(=O)n(CCC(=O)O)c2cc1Cl)c1ccc(Cl)cn1.NC(CO)(CO)CO")
2.65
>>> number("C[C@H](Oc1cc2oc(=O)n(CCC(=O)O)c2cc1Cl)c1ccccn1.NC(CO)(CO)CO")
1.79

[A] C[C@@H](Oc1cc2onc(CCC(=O)O)c2cc1Cl)c1ccccn1.NC(CO)(CO)CO
[B] NC(CO)(CO)CO.O=C(O)CCn1c(=O)oc2cc(OCC3CCC3)c(Cl)cc21
Data request: # query: argmin of logD over A and B // return label of chosen record
Data returned: A
(A: 1.99, B: 2.9)

[P] C[C@@H](Oc1cc2cnn(CCC(=O)O)c2cc1Cl)c1ccccn1
[Q] O=C(O)CCn1c(=O)oc2cc(OCc3ccccc3)c(Cl)cc21
Data request: Short answer wanted: higher logD, P or Q ? // return label of chosen record
Data returned: Q
(Q: 2.71, P: 1.7)

[I] C[C@@H](Oc1cc2c(cc1Cl)N(CCC(=O)O)C(=O)CO2)c1ccccn1
[II] C[C@@H](Oc1cc2onc(CCC(=O)O)c2cc1Cl)c1ccc(F)cn1
Data request: # query: argmin of logD over I and II // return label of chosen record
Data returned: I
